# Test name: Plasma concentrations of BVDU, BVU and GEM in patients of the dose finding study (HPLC)
# Format: in vivo, human
# Condition parameters: both sexes, human, plasma, po, dose level 10500 mg; 0.0 hr; day 1; oral BVDU; read-out: BVDU plasma concentration, Mean
Measured property: concentration at 0 h (ng/mL)
Give the quantity in ng/mL, number only.

Q: Request the reported concentration at 0 h associated with O=c1[nH]c(=O)n([C@H]2C[C@H](O)[C@@H](CO)O2)cc1/C=C/Br [BVDU, (E)-5-(2-bromovinyl)-2′-deoxyuridine]
Ans: 0

====

# Test name: Plasma concentrations of BVDU, BVU and GEM in patients of the dose finding study (HPLC)
# Type: in vivo, human
# Condition parameters: human, plasma, po, dose level 7500 mg; 1.0 hr; day 1; oral BVDU; read-out: BVDU plasma concentration, Median
Measured property: concentration at 1 h
The reply must contain the numeric value and, after it, the unit.

Q: Please give the measured concentration at 1 h for this compound: O=c1[nH]c(=O)n([C@H]2C[C@H](O)[C@@H](CO)O2)cc1/C=C/Br [BVDU, (E)-5-(2-bromovinyl)-2′-deoxyuridine]
Ans: 484 ng/mL

====

# Test name: Plasma concentrations of BVDU, BVU and GEM in patients of the dose finding study (HPLC)
# Assay type: in vivo, human
# Condition parameters: both sexes, human, plasma, po, dose level 6000 mg; 4.0 hr; day 1; oral BVDU; read-out: BVDU plasma concentration, patient
Measured property: concentration at 4 h (ng/mL)
Your answer should be a plain number; it is taken to be in ng/mL.

Q: Need concentration at 4 h of O=c1[nH]c(=O)n([C@H]2C[C@H](O)[C@@H](CO)O2)cc1/C=C/Br [BVDU, (E)-5-(2-bromovinyl)-2′-deoxyuridine] , thanks.
Ans: 126

====

# Test name: Plasma concentrations of BVDU, BVU and GEM in patients of the dose finding study (HPLC)
# Format: in vivo, human
# Condition parameters: both sexes, human, plasma, po, dose level 10500 mg; 2.0 hr; day 1; oral BVDU; read-out: BVDU plasma concentration, Mean
Measured property: concentration at 2 h (ng/mL)
Field format: number, assumed ng/mL, no unit text.

Q: If you can, please state the reported concentration at 2 h value of O=c1[nH]c(=O)n([C@H]2C[C@H](O)[C@@H](CO)O2)cc1/C=C/Br [BVDU, (E)-5-(2-bromovinyl)-2′-deoxyuridine] .
Ans: 697

====

# Test name: Plasma concentrations of BVDU, BVU and GEM in patients of the dose finding study (HPLC)
# Format: in vivo, human
# Condition parameters: both sexes, human, plasma, po, dose level 12000 mg; 9.0 hr; day 1; oral BVDU; read-out: BVDU plasma concentration, Median
Measured property: concentration at 9 h (ng/mL)
Could you give me the number in ng/mL? Just the number is fine.

Q: What concentration at 9 h value was documented for this compound, O=c1[nH]c(=O)n([C@H]2C[C@H](O)[C@@H](CO)O2)cc1/C=C/Br [BVDU, (E)-5-(2-bromovinyl)-2′-deoxyuridine] ?
Ans: 1780

====

# Test name: Plasma concentrations of BVDU, BVU and GEM in patients of the dose finding study (HPLC)
# Format: in vivo, human
# Condition parameters: both sexes, human, plasma, po, dose level 6000 mg; 3.0 hr; day 1; oral BVDU; read-out: BVDU plasma concentration, Median
Measured property: concentration at 3 hr (µg/mL)
# value in µg/mL; strip the unit string

Q: # input compound: O=c1[nH]c(=O)n([C@H]2C[C@H](O)[C@@H](CO)O2)cc1/C=C/Br [BVDU, (E)-5-(2-bromovinyl)-2′-deoxyuridine] ; wanted: its concentration at 3 hr
Ans: 0.133

====

# Test name: Plasma concentrations of BVDU, BVU and GEM in patients of the dose finding study (HPLC)
# Type: in vivo, human
# Condition parameters: human, plasma, po, dose level 9000 mg; 1.0 hr; day 1; oral BVDU; read-out: BVDU plasma concentration, Median
Measured property: concentration at 1 h

Q: I am curious: what concentration at 1 h value has been reported for O=c1[nH]c(=O)n([C@H]2C[C@H](O)[C@@H](CO)O2)cc1/C=C/Br [BVDU, (E)-5-(2-bromovinyl)-2′-deoxyuridine] ?
Ans: 781 ng/mL

====

# Test name: Plasma concentrations of BVDU, BVU and GEM in patients of the dose finding study (HPLC)
# Format: in vivo, human
# Condition parameters: human, plasma, po, dose level 9000 mg; 0.0 hr; day 1; oral BVDU; read-out: BVDU plasma concentration, Mean
Measured property: concentration at 0 h (ng/mL)
Please respond with the number in ng/mL and leave the unit unwritten.

Q: Which value of concentration at 0 h has been reported for O=c1[nH]c(=O)n([C@H]2C[C@H](O)[C@@H](CO)O2)cc1/C=C/Br [BVDU, (E)-5-(2-bromovinyl)-2′-deoxyuridine] in the records?
Ans: 0

====

# Test name: Plasma concentrations of BVDU, BVU and GEM in patients of the dose finding study (HPLC)
# Assay type: in vivo, human
# Condition parameters: human, plasma, po, dose level 9000 mg; 2.0 hr; day 1; oral BVDU; read-out: BVDU plasma concentration, Median
Measured property: concentration at 2 h (µg/mL)
I only need the number, in µg/mL, no unit after it.

Q: For the compound O=c1[nH]c(=O)n([C@H]2C[C@H](O)[C@@H](CO)O2)cc1/C=C/Br [BVDU, (E)-5-(2-bromovinyl)-2′-deoxyuridine] , what concentration at 2 h is on record?
Ans: 0.705

====

# Test name: Plasma concentrations of BVDU, BVU and GEM in patients of the dose finding study (HPLC)
# Assay type: in vivo, human
# Condition parameters: both sexes, human, plasma, po, dose level 6000 mg; 3.0 hr; day 1; oral BVDU; read-out: BVDU plasma concentration, Mean
Measured property: concentration at 3 hr (ng/mL)
The answer is to be given in ng/mL; state only the numeric part.

Q: Fill blank: measured concentration at 3 hr of the compound O=c1[nH]c(=O)n([C@H]2C[C@H](O)[C@@H](CO)O2)cc1/C=C/Br [BVDU, (E)-5-(2-bromovinyl)-2′-deoxyuridine] is ____.
Ans: 175

====

# Test name: Plasma concentrations of BVDU, BVU and GEM in patients of the dose finding study (HPLC)
# Format: in vivo, human
# Condition parameters: both sexes, human, plasma, po, dose level 7500 mg; 1.5 hr; day 1; oral BVDU; read-out: BVDU plasma concentration, Mean
Measured property: concentration at 1.5 hr (ng/mL)
Just the number please, in ng/mL, no unit attached.

Q: If you can, please state the reported concentration at 1.5 hr value of O=c1[nH]c(=O)n([C@H]2C[C@H](O)[C@@H](CO)O2)cc1/C=C/Br [BVDU, (E)-5-(2-bromovinyl)-2′-deoxyuridine] .
Ans: 555

====

# Test name: Plasma concentrations of BVDU, BVU and GEM in patients of the dose finding study (HPLC)
# Assay type: in vivo, human
# Condition parameters: human, plasma, po, dose level 7500 mg; 5.0 hr; day 1; oral BVDU; read-out: BVDU plasma concentration, Mean
# Procedure: Dose finding study: 22 Patients with advanced pancreatic adenocarcinoma were eligible for treatment in this single arm study. The mean age was 60 years and 73% of patients were males. One patient without progressive disease was excluded from the study for withdrawal of consent after the first cycle. Of the 21 patients left, 15 were in stage IV and 6 in stage III. BVDU was administered in a combination with GEM. On day 1, on day 8 and on day 15 of each 28-day cycle, BVDU was given together with GEM. […]
Measured property: concentration at 5 h (ng/mL)
// note: answer is a bare numeric in ng/mL

Q: So what's the measured concentration at 5 h for this one? O=c1[nH]c(=O)n([C@H]2C[C@H](O)[C@@H](CO)O2)cc1/C=C/Br [BVDU, (E)-5-(2-bromovinyl)-2′-deoxyuridine]
Ans: 641

====

# Test name: Plasma concentrations of BVDU, BVU and GEM in patients of the dose finding study (HPLC)
# Assay type: in vivo, human
# Condition parameters: human, plasma, po, dose level 7500 mg; 9.0 hr; day 1; oral BVDU; read-out: BVDU plasma concentration, Median
Measured property: concentration at 9 h (ng/mL)
Answer format: numeric, ng/mL implied, no suffix.

Q: I am curious: what concentration at 9 h value has been reported for O=c1[nH]c(=O)n([C@H]2C[C@H](O)[C@@H](CO)O2)cc1/C=C/Br [BVDU, (E)-5-(2-bromovinyl)-2′-deoxyuridine] ?
Ans: 898

====

# Test name: Plasma concentrations of BVDU, BVU and GEM in patients of the dose finding study (HPLC)
# Type: in vivo, human
# Condition parameters: both sexes, human, plasma, po, dose level 10500 mg; 0.5 hr; day 1; oral BVDU; read-out: BVDU plasma concentration, Mean
Measured property: concentration at 0.5 h
Note: state the figure and append the unit.

Q: Query (compound): O=c1[nH]c(=O)n([C@H]2C[C@H](O)[C@@H](CO)O2)cc1/C=C/Br [BVDU, (E)-5-(2-bromovinyl)-2′-deoxyuridine] ; field requested: concentration at 0.5 h
Ans: 1.11 µg/mL
